Tested on: SH-SY5Y cells
method: Nuclear count from microscopy images (cellular growth and toxicity); note: reference of the scale not given here
condition notes: PKIS2 primary screening
quantity name: Nuclear Count
Write no unit; give the number alone.

I would be grateful if you could share the reported Nuclear Count for Cc1ccc(NC(=O)Nc2cc(C(C)(C)C)nn2-c2ccccc2)cc1 [UNC10225353A] .
116.98

I would be grateful if you could share the reported Nuclear Count for c1ccc(-c2cc(-c3c[nH]nc3-c3ccccn3)ccn2)cc1 [UNC10225169A] .
139.75

I would be grateful if you could share the reported Nuclear Count for Cc1cccc(-c2nc(Nc3ccc4nn[nH]c4c3)c3ccccc3n2)n1 [GW867587] .
123.89

I would be grateful if you could share the reported Nuclear Count for Cl.Oc1ccc(-c2nc(-c3ccccc3)[nH]c2-c2ccncc2)cc1 [UNC10225482A] .
92.35

I would be grateful if you could share the reported Nuclear Count for Nc1nc(-c2ccccc2F)c(-c2ccnc3ccccc23)s1 [UNC10225301A] .
129.96

I would be grateful if you could share the reported Nuclear Count for Cc1n[nH]c2cc(Nc3ccnc(Nc4cccc(CN5CCOCC5)c4)n3)ccc12 [GW682569] .
85.02

I would be grateful if you could share the reported Nuclear Count for Nc1nc(-c2ccc3c(N)n[nH]c3c2)cc(N2CCCC2)n1 [GSK2227430] .
85.02

I would be grateful if you could share the reported Nuclear Count for COc1cccc2c(-c3ccncc3)c(-c3ccc(F)cc3)nn12 [UNC10225305A] .
99.48

I would be grateful if you could share the reported Nuclear Count for COc1cc2ncnc(Nc3ccc4nc(-c5ccccc5)[nH]c4c3)c2cc1OC.Cl [UNC10225504A] .
107.73
